# assay-system: T1, human CTLA-4-Fc (Chimerigen) (human, UniProt P16410 36-161; P01857 99-330 = IgG part, limits assumed)
# T1 construct: extracellular domain;domain: Fc portion; Bought protein; also called hCTLA-4-Fc; huCTLA-4-Ig
# T1 sequence (P16410 other isoform, or with tags, fused parts or gaps mutant limits assumed): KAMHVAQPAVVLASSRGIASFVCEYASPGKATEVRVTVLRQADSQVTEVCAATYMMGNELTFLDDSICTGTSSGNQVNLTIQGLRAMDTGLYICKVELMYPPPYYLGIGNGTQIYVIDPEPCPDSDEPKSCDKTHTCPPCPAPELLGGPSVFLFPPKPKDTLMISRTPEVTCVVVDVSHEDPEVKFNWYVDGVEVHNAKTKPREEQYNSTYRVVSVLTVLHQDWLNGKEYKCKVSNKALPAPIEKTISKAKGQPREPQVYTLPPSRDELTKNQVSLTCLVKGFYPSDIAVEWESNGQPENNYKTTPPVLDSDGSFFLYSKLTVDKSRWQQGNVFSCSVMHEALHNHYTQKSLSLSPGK
# assay-comment: ELISA towards hCTLA-4-Fc
metric-name: ELISA affinities (nM)
Numbers only, in nM.

binder | ELISA affinities / nM
hNGAL mutein S140.4-O10 (designed binder, also called Onc I-002) QDSTSDLIPAPPLSKVPLQQNFQDNQFHGKWYVVGLAGNRILRDDQHPMNMYATIYELKEDKSYNVTSVISSHKKCEYTIATFVPGSQPGEFTLGNIKSYGDKTSYLVRVVSTDYNQYAVVFFKLAEDNAEFFAITIYGRTKELASELKENFIRFSKSLGLPENHIVFPVPIDQCIDG | 3.8

# next binder below
Q: Would you mind telling me what ELISA affinities value was observed for S140.4-O10 site-directed PEGylated at Cys 87 with 12k PEG (designed binder, chain 1 pos 87: Cys carrying linear 12k PEG-maleimide on its thiol, written C, also called O10_PEG(12k); O10_S87C PEGylated monomer) QDSTSDLIPAPPLSKVPLQQNFQDNQFHGKWYVVGLAGNRILRDDQHPMNMYATIYELKEDKSYNVTSVISSHKKCEYTIATFVPGCQPGEFTLGNIKSYGDKTSYLVRVVSTDYNQYAVVFFKLAEDNAEFFAITIYGRTKELASELKENFIRFSKSLGLPENHIVFPVPIDQCIDGSAWSHPQFEK ?
Result: 3.2
